MEASUREMENT_TARGET: T1, human TSH receptor (full length), coated on tubes (human, UniProt P16473 22-764)
T1 construct: TSHR coated tubes as described in WO2004/050708A2; The receptor is full length and held on plastic tubes through a mouse MAb to the TSHR; also called thyroid stimulating hormone receptor
TEST_DETAILS: inhibition of 125I-K1-70 Fab (competitor) binding to TSHR coated tubes; 1 µg/mL in assay buffer
MEASUREMENT_KIND: Inhibition of binding (%)
Record the value in %, omitting the unit from your answer.

Requested read-out: Inhibition of binding (%). Entry: K1-70 IgG (antibody, V domains shown, Human IgG1 lambda purified from hetero-hybridoma supernatant; also called human monoclonal autoantibody to the TSHR with TSH antagonist activity) VH: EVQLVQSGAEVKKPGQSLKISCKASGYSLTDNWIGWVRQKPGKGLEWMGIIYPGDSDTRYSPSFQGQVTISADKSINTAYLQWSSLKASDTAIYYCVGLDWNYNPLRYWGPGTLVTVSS VL: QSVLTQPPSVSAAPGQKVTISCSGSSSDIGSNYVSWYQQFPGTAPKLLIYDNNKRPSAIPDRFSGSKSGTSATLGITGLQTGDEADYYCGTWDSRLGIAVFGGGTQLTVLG 95.2
